Where do these numbers come from? They come from patent US9382197B2.

molecular target: purified human HDAC6 (Homo sapiens); construct: purchased BPS Bioscience 5006; assay: HDAC6 Enzyme Assay; type: biochemical; conditions: purified human HDAC6, substrate Ac-Arg-Gly-Lys(Ac)-AMC, 1 hour at 30° C.; reported as bins
Sequence (Q9UBN7 whole entry): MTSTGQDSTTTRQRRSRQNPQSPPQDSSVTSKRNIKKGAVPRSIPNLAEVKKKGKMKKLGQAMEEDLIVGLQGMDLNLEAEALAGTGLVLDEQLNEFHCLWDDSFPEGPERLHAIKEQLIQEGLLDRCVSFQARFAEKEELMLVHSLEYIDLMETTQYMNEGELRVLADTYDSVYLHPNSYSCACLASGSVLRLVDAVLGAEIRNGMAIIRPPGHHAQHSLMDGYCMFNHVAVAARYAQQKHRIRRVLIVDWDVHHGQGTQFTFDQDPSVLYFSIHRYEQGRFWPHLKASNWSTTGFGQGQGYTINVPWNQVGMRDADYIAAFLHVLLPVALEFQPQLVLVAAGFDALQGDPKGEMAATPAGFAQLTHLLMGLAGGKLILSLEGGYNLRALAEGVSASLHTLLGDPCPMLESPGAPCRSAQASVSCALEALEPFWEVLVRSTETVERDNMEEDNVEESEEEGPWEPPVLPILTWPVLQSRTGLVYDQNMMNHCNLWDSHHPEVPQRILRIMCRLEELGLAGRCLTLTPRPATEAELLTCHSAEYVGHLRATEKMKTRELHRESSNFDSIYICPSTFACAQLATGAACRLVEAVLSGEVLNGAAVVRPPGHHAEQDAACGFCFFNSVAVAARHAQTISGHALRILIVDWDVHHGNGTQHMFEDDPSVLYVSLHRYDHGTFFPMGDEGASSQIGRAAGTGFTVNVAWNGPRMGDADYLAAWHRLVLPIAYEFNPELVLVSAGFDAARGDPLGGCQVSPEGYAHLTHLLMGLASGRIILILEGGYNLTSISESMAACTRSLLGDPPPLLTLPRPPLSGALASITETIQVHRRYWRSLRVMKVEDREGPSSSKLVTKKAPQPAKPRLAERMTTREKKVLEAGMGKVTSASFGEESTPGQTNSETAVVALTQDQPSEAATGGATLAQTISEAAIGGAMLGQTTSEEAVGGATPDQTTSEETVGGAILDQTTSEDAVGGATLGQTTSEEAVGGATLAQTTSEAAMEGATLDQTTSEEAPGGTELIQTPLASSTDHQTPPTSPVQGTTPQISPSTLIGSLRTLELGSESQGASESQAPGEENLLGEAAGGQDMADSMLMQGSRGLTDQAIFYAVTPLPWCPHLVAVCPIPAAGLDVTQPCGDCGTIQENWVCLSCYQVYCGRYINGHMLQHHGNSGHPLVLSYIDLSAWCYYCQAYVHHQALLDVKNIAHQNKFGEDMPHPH
# reported IC50; entries follow

Answered cases to consult:
Cn1nc(C(C)(C)C)cc1C(=O)NC(c1ccc(C(=O)NO)cc1)C(C)(C)C (centres unmarked): 100 to 500 nM
CC(NC(=O)c1ccc2ncsc2c1)c1ccc(C(=O)NO)cc1 (centres unmarked): < 100 nM
COc1ccc(NC(=O)NC(C)c2ccc(C(=O)NO)cc2)c(OC)c1 (centres unmarked): < 100 nM
C[C@H](NC(=O)N[C@H](C)c1ccc(C(=O)NO)cc1)c1ccccc1: < 100 nM

Problem: For the compound shown here, Cn1cccc1C(=O)NC(c1ccc(C(=O)NO)cc1)C(C)(C)C (centres unmarked) , give the reported IC50.
Solution: 100 to 500 nM

Problem: For the compound shown here, `CCC[C@@H](NC(=O)c1cc(Cl)c(Cl)n1C)c1ccc(C(=O)NO)cc1` , give the reported IC50.
Solution: < 100 nM

Problem: For the compound shown here, Cc1nc(-c2ccccc2)ncc1C(=O)NC(c1ccc(C(=O)NO)cc1)C(C)C (centres unmarked) , give the reported IC50.
Solution: 100 to 500 nM
